# SYSTEM_UNDER_TEST: D(2) dopamine receptor (Rattus norvegicus)
# Sequence (P61169 whole entry): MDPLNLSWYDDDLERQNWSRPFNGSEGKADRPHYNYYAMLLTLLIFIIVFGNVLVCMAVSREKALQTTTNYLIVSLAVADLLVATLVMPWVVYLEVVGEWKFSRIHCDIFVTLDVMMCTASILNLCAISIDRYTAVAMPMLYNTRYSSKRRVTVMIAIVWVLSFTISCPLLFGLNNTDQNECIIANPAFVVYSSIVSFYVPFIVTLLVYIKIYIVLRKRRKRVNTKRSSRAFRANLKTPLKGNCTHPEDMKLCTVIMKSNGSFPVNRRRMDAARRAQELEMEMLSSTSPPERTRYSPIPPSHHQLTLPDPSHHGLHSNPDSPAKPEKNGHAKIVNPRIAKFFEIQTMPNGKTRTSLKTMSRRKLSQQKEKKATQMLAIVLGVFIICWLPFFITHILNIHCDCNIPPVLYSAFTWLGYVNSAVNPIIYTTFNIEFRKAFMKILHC
# PROCEDURE_SUMMARY: Inhibitory activity against [3H]spiroperidol bingind to Dopamine receptor D2 in rat striatum
pIC50: −log10 of the molar value.
MEASURED_METRIC: pIC50

The compound identified as CCCN(c1ccncc1)n1ccc2ccccc21 [BESIPIRDINE] registered its pIC50 at < 4.70

====

# Tested on: Mus musculus
# PROCEDURE_SUMMARY: Antagonistic activity against Scopolamine induced behavioral deficits in mice at dose 0.16 mg/kg sc
# Assay type: functional
# MEASUREMENT_PARAMETERS: route subcutaneous
MEASURED_METRIC: Response
Give me the value, and tack the unit on after it.

Below, 7 compounds whose answers are already recorded.
c1ccc2c(c1)ccn2Nc1ccncc1
23%
CCCN(c1ccncc1)n1cc(C#N)c2ccccc21
40%
CCCN(c1ccncc1)n1ccc2cc(OC)ccc21
20%
CCCN(c1[nH]cnc2ncnc1-2)n1ccc2ccccc21
20%
CN(c1ccncc1)n1ccc2cc([N+](=O)[O-])ccc21
20%
CCCN(c1ccncc1)n1ccc2ccccc21 [BESIPIRDINE]
27%
CC(C)N(c1ccncc1)n1ccc2ccccc21
33%

Now for another entry.
The compound identified as CCCN(c1ccncc1)n1cc(C(C)=O)c2ccccc21 registered its Response at 20%

====

# SYSTEM_UNDER_TEST: Sodium-dependent noradrenaline transporter (Homo sapiens)
# Sequence (P23975 whole entry): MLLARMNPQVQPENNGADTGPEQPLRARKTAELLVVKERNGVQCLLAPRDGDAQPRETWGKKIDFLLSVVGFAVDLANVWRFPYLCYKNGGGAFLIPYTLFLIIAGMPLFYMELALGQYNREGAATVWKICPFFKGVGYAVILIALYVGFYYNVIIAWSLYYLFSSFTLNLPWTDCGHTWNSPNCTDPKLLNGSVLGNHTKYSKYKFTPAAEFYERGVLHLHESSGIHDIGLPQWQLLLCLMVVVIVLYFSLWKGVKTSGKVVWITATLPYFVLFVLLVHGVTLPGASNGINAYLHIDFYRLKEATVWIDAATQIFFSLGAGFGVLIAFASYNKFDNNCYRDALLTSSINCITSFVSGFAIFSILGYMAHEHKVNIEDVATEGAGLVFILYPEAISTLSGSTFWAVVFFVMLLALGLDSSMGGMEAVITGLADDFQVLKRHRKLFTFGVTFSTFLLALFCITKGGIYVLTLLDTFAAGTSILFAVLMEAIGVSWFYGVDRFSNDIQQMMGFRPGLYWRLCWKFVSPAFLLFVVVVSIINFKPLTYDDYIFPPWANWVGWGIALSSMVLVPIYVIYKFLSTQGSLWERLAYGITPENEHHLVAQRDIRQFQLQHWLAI
pIC50: −log10 of the molar value.
pIC50 below 6 gives false (0); pIC50 at or above it gives true (1).

Some solved entries appear below for comparison.
CCCN(c1ccncc1)n1cccn1.O=C(O)/C=C/C(=O)O
false (0)
Cc1cn(Nc2ccncc2)c2ccccc12
false (0)

Please examine the following record next.
Prompt: hey, is pIC50 for this one >= 6? CCN(c1ccncc1)n1ccc2ccccc21
Response: true (1)

====

# SYSTEM_UNDER_TEST: Acetylcholinesterase (Rattus norvegicus)
# Sequence (P37136 whole entry): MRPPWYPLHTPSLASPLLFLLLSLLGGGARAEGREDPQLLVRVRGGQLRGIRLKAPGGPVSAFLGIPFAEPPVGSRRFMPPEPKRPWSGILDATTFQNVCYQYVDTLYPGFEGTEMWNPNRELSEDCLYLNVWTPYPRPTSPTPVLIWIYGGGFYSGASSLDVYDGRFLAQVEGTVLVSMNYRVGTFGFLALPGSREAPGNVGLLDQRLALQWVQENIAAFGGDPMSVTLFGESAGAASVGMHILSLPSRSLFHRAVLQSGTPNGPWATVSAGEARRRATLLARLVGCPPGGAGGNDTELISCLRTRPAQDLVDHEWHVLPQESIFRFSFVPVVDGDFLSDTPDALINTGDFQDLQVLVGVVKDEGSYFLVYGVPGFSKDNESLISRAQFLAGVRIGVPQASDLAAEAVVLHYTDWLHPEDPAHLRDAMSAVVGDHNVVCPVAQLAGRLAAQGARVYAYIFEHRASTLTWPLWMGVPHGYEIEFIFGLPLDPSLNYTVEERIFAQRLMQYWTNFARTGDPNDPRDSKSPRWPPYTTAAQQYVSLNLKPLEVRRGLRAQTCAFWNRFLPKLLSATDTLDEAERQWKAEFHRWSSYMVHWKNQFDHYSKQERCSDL
# PROCEDURE_SUMMARY: Inhibitory activity against Acetylcholinesterase in rat striatum
# Type: tissue-based
pIC50: −log10 of the molar value.
MEASURED_METRIC: pIC50

The molecule identified as CCCN(c1ccncc1)n1ccc2ccccc21 registered its pIC50 at < 4.00

====

# SYSTEM_UNDER_TEST: Muscarinic acetylcholine receptor
# Format: cell membranes, Membrane
# Description: Inhibition of [3H]quinuclidinyl benzilate (QNB) binding from rat forebrain membranes in the absence of Zn
MEASURED_METRIC: log10 IC50 (log10 of the value in µM)
Scale type: logarithmic (base 10). Underlying IC50 unit: µM.

Below, 3 molecules whose answers are already recorded.
C#CCN(c1ccncc1)n1ccc2ccccc21
1.04
O=C(O)/C=C/C(=O)O.c1ccc2c(c1)cnn2Nc1ccncc1
2.11
Cc1cc2ccccc2n1Nc1ccncc1
1.78

The molecule identified as CCCN(c1ccncc1)n1cc(C(C)=O)c2ccccc21 registered its log10 IC50 at 1.46

The molecule identified as CCCN(c1ccncc1)n1cc(C=O)c2ccccc21 registered its log10 IC50 at 0.52

The molecule identified as CN(c1ccncc1)n1ccc2ccccc21 registered its log10 IC50 at 0.95

The molecule identified as CCCN(c1ccncc1)n1cccn1.O=C(O)/C=C/C(=O)O registered its log10 IC50 at 2.10

====

# SYSTEM_UNDER_TEST: Muscarinic acetylcholine receptor
# Type: cell membranes, Membrane
MEASURED_METRIC: IC50 (µM)
Only the number, expressed in µM, is required.

CCCN(c1ccncc1)n1ccc2ccccc21
3
c1ccc2nn(Nc3ccncc3)cc2c1
409

The compound identified as CN(c1ccncc1)n1ccc2cc(Br)ccc21 registered its IC50 at 4.6
